# credit: paper PMC7826789

System: CDK5
conditions: Compound Concentration (nM):1000;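 note: KINOMEscan scanMAX binding as percent activity remaining versus control; lower means stronger binding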
readout_name: Percent Control (%)
One number for each entry, in %.

>  <compound>
CN1CCN(C(=O)c2ccc(NC(=O)Nc3ccc(N(C)c4ccnc(Nc5ccc(CS(C)(=O)=O)cc5)n4)cc3)cc2)CC1.Cl [GW830263A]

>  <output_unit>
%

>  <Percent Control>
91

$$$$

Batch request: Percent Control for each of the following compounds.
1. CC(C)COC(=O)c1ccc2c(c1)/C(=C/Nc1ccc(S(N)(=O)=O)cc1)C(=O)N2 [GW416981X]
2. Cl.c1ccc(Cc2nc3ccc(Nc4ncnc5ccccc45)cc3[nH]2)cc1 [GR269666A]
3. CC1=C(C(=O)Nc2ccc3[nH]ncc3c2)C(c2ccc(Cl)c(Cl)c2)CC(=O)N1 (centres unmarked) [GSK299115A]
4. COc1ccc2cc(-c3c(-c4ccncc4)nc(-c4ccc(S(C)(=O)=O)cc4C)n3C)ccc2c1
5. COc1cc(C=NNc2ncnc3c2cnn3-c2ccccc2)ccc1O [GW513184X]
6. COc1ccc(COc2ccc(Cc3cnc(N)nc3N)cc2OC)cc1 [GW632580X]
7. COc1ccc2c(-c3ccnc(Nc4cccc(OC(F)(F)F)c4)n3)cnn2n1 [GW810372X]

36
100
100
95
64
93
100

----------
System: TNNI3K
conditions: Compound Concentration (nM):1000
Would you mind telling me the reported Percent Control of each entry?
Give bare numbers, in %.

For each of the molecules below, note its Percent Control.
1. COc1cc(C)c(N(C)C(=O)CN(C)C)cc1Nc1nc(Nc2cccc(F)c2C(N)=O)c2cc[nH]c2n1 [GSK2219385]
2. NS(=O)(=O)c1ccc(N/N=C2\C(=O)Nc3ccc(-c4cnco4)cc32)cc1 [GW276655]
3. CN(C)CCNC(=O)Nc1ccc(N(C)c2ccnc(Nc3ccc(CS(C)(=O)=O)cc3)n2)cc1.Cl [GW830900A]

100
100
97

Which measured Percent Control value corresponds to CN(C)c1cc2c(Nc3ccc4c(cnn4Cc4ccccc4)c3)ncnc2cn1 [GW282974X] ?
100

----------
Test system: GRK3
Construct: gene ADRBK2
conditions: Compound Concentration (nM):1000
So I've got a bunch of compounds here, and I need their Percent Control values.
Numbers only, in %.

Recorded Percent Control, per entry:
>  <compound>
O=C(Nc1n[nH]c2nc(-c3ccc(O)cc3)c(Br)cc12)C1CC1

>  <target_or_test_system>
GRK3

>  <Percent Control / %>
100

$$$$
>  <compound>
CC(C)COC(=O)c1ccc2c(c1)/C(=C/Nc1ccc(S(N)(=O)=O)cc1)C(=O)N2 [GW416981X]

>  <target_or_test_system>
GRK3

>  <Percent Control / %>
100

$$$$
>  <compound>
Nc1ncnc2occ(-c3ccc(NC(=O)Nc4cc(C(F)(F)F)ccc4F)cc3)c12 [GW770249X]

>  <target_or_test_system>
GRK3

>  <Percent Control / %>
98

$$$$

Please state Percent Control for every compound in the list that follows.
1. COc1ccc2[nH]c3c4[nH]c5ccc(OC)cc5c4c4c(c3c2c1)C(=O)NC4=O [GW296115X]
2. COc1cc2ncn(-c3cc(O[C@H](C)c4ccccc4Cl)c(C(N)=O)s3)c2cc1OC [GSK237701A]
3. COc1ccccc1-c1cc(/C=C2\C(=O)Nc3ncc(Br)cc32)cc(Br)c1O [GW442130X]
4. COc1cccc(-n2ncc3c(N/N=C/c4ccncc4)ncnc32)c1 [GW784752X]
5. CCc1ccc(Oc2nccc(-c3c(-c4ccc(F)cc4)ncn3C3CCNCC3)n2)cc1
6. NS(=O)(=O)c1ccc(N/N=C2\C(=O)Nc3ccc(C(=O)NCc4ccncc4)cc32)cc1 [GW300657X]

1: 70; 2: 97; 3: 100; 4: 100; 5: 90; 6: 76
